Measured IC50, listed per entry.
Test: Inhibition of human RANKL-induced osteoclastogenesis in RANKL cultured mouse bone marrow cells assessed as reduction in RANKL/M-CSF-induced TRAP activity preincubated with RANKL for 1 hr followed by cell addition and subsequent media replenishment every 48 hrs for 4 days
Observation type: IC50

INSERT INTO results (sample_smiles, recorded_measurement) VALUES
  ('Cc1cc2occ(CN(C)CCN(C)Cc3cn(-c4cccc(C(F)(F)F)c4)c4ccccc34)c(=O)c2cc1C', '1000 nM'),
  ('N#Cc1ccc(S(=O)(=O)N2CCN(C(=O)c3cn(S(=O)(=O)c4cccc([N+](=O)[O-])c4)c4ccccc34)CC2)cc1', '5100 nM'),
  ('CN(CCN(C)Cc1cn(S(=O)(=O)c2ccccc2)c2ccccc12)Cc1coc2ccccc2c1=O', '2500 nM'),
  ('O=C(c1cn(S(=O)(=O)c2cccc([N+](=O)[O-])c2)c2ccccc12)N1CCN(S(=O)(=O)c2ccccc2)CC1', '1400 nM'),
  ('CN(CCN(C)S(=O)(=O)c1ccccc1)C(=O)c1cn(S(=O)(=O)c2cccc([N+](=O)[O-])c2)c2ccccc12', '2700 nM'),
  ('CN(CCN(C)C(=O)c1cn(S(=O)(=O)c2ccccc2)c2ccccc12)C(=O)c1coc2ccccc2c1=O', '2860 nM'),
  ('O=C(c1cn(S(=O)(=O)c2cccc([N+](=O)[O-])c2)c2ccccc12)N1CCN(S(=O)(=O)c2cccc([N+](=O)[O-])c2)CC1', '6400 nM'),
  ('CN(CCN(C)C(=O)c1cn(-c2cccc([N+](=O)[O-])c2)c2ccccc12)C(=O)c1coc2ccccc2c1=O', '1880 nM');
